Reported pIC50 values for a set of compounds
# target_entity: ENaC (Epithelial Sodium Channel) (Mus musculus, UniProt Q61180+Q9WU38+Q9WU39)
# Sequence (Q61180 whole entry): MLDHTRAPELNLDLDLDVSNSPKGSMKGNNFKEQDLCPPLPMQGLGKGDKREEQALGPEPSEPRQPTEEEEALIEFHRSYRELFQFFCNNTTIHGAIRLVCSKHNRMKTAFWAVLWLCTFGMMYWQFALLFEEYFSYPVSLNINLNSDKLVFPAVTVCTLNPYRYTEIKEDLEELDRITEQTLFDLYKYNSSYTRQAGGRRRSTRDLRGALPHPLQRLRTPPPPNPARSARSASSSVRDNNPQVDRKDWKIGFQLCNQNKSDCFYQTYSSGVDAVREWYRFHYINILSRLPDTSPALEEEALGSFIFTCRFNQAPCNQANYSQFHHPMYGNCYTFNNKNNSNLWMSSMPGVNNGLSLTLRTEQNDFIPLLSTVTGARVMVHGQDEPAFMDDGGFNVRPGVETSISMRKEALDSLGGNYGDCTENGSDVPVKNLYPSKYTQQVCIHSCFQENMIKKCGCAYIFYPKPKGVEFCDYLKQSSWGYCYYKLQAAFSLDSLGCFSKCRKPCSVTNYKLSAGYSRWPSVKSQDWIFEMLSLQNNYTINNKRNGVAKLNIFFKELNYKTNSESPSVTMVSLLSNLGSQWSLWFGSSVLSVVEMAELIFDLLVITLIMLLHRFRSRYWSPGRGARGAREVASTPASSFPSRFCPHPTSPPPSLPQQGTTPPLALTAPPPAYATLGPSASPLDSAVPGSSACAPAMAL
# Sequence (Q9WU38 whole entry): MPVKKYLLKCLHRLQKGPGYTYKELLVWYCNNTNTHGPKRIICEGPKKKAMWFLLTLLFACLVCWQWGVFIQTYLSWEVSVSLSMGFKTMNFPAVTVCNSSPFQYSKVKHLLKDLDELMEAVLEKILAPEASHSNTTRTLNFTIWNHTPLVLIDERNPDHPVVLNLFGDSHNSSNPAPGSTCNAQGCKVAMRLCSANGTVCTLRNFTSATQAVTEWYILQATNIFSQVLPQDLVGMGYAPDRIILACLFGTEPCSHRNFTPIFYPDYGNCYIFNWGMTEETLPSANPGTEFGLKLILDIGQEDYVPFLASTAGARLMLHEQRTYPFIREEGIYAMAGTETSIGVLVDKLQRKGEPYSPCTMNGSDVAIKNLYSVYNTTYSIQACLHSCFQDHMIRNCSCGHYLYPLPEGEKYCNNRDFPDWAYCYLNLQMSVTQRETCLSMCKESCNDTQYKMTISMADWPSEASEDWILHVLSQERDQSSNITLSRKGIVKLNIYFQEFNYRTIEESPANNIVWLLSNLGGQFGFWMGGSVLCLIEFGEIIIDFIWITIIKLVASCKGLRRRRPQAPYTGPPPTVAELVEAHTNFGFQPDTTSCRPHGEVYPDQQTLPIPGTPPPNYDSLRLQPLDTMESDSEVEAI
# Sequence (Q9WU39 whole entry): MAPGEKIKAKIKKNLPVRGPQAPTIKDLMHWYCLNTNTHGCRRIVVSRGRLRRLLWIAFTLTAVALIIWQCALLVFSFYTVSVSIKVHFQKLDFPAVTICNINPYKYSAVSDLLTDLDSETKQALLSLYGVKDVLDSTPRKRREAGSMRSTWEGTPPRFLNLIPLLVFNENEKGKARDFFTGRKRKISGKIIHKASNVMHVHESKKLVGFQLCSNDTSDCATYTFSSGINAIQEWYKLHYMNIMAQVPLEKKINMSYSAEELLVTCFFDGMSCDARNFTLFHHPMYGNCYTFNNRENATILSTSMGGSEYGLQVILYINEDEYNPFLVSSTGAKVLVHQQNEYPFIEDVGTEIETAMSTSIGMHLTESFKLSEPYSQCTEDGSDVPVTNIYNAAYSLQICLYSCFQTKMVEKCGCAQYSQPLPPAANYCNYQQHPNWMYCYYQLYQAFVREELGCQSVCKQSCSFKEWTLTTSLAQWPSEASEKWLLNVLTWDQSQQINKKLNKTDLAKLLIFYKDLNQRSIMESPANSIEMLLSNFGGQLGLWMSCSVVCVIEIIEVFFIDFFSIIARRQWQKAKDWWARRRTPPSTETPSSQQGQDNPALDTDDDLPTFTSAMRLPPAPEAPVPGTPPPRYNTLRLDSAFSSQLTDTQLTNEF
# assay_procedure: Ussing Chamber assay (amiloride sensitive short circuit current in M-1 cells)
# stated_conditions: Mouse kidney M-1 cells, apical administration, 37° C.
pIC50: −log10 of the molar value.

>  <compound>
CCn1c(CNC(=O)c2nc(Cl)cnc2N)[n+](CC)c2ccc(C(=O)N3CCCNCC3)cc21 [Example 1.19]

>  <pIC50>
8.40

$$$$
>  <compound>
CCn1c(CNC(=O)c2nc(Cl)cnc2N)[n+](CC)c2ccc(C(=O)NCCCNC)cc21 [Example 1.04]

>  <pIC50>
8.52

$$$$
>  <compound>
CCn1c(CNC(=O)c2nc(Cl)cnc2N)[n+](CC)c2ccc(C(=O)N(C)CCN(C)C)cc21 [Example 1.20]

>  <pIC50>
8.22

$$$$
>  <compound>
CCn1c(CNC(=O)c2nc(Cl)cnc2N)[n+](CC)c2ccc(C(=O)N(CCN)CCN)cc21 [Example 1.13]

>  <pIC50>
8.15

$$$$
>  <compound>
CCn1c(CNC(=O)c2nc(Cl)cnc2N)[n+](CC)c2ccc(C(=O)NCCNC)cc21 [Example 1.08]

>  <pIC50>
8.22

$$$$
>  <compound>
CCn1c(CNC(=O)c2nc(Cl)cnc2N)[n+](CC)c2ccc(C(=O)N3CCN(C)CC3)cc21 [Example 1.07]

>  <pIC50>
8.30

$$$$
>  <compound>
CCn1c(CNC(=O)c2nc(Cl)cnc2N)[n+](CC)c2ccc(C(=O)NC[C@H](O)[C@@H](O)[C@H](O)[C@H](O)CO)cc21 [Example 1.09]

>  <pIC50>
8.22

$$$$
>  <compound>
CCn1c(CNC(=O)c2nc(Cl)cnc2N)[n+](CC)c2ccc(C(=O)N(C)CCCNC)cc21 [Example 1.02]

>  <pIC50>
8.40

$$$$
>  <compound>
CCn1c(CNC(=O)c2nc(Cl)cnc2N)[n+](CC)c2ccc(C(=O)N3CCC(NC(=O)CN)CC3)cc21 [Example 1.21]

>  <pIC50>
8.30

$$$$
>  <compound>
CCn1c(CNC(=O)c2nc(Cl)cnc2N)[n+](CC)c2ccc(C(=O)NCCN3CCOCC3)cc21 [Example 1.03]

>  <pIC50>
8.15

$$$$
>  <compound>
CCn1c(CNC(=O)c2nc(Cl)cnc2N)[n+](CC)c2cc(C(=O)NCCOCP(C)(C)=O)ccc21 [Example 1.22]

>  <pIC50>
7.89

$$$$
>  <compound>
CCn1c(CNC(=O)c2nc(Cl)cnc2N)[n+](CC)c2ccc(C(=O)NCCN(C)C)cc21 [Example 1.06]

>  <pIC50>
8.40

$$$$
>  <compound>
CCn1c(CNC(=O)c2nc(Cl)cnc2N)[n+](CC)c2ccc(C(=O)N(CCN)CC(C)C)cc21 [Example 1.05]

>  <pIC50>
8.10

$$$$
>  <compound>
CCn1c(CNC(=O)c2nc(Cl)cnc2N)[n+](CC)c2ccc(C(=O)N3CCNCC3)cc21 [Example 1.01]

>  <pIC50>
8.15

$$$$
>  <compound>
CCCCN1CCN(C(=O)c2ccc3c(c2)[n+](CC)c(CNC(=O)c2nc(Cl)cnc2N)n3CC)CC1 [Example 1.18]

>  <pIC50>
8.30

$$$$
>  <compound>
CCn1c(CNC(=O)c2nc(Cl)cnc2N)[n+](CC)c2ccc(C(=O)N3CCC(NC(=O)CN(C)C)CC3)cc21 [Example 1.11]

>  <pIC50>
8.30

$$$$
>  <compound>
CCn1c(CNC(=O)c2nc(Cl)cnc2N)[n+](CC)c2ccc(C(=O)N(C)CCCN(C)C)cc21 [Example 1.17]

>  <pIC50>
8.15

$$$$
>  <compound>
CCn1c(CNC(=O)c2nc(Cl)cnc2N)[n+](CC)c2ccc(C(=O)NCCCN)cc21 [Example 1.10]

>  <pIC50>
8.40

$$$$
>  <compound>
CCn1c(CNC(=O)c2nc(Cl)cnc2N)[n+](CC)c2cc(C(=O)N3CCC(N(C)C)CC3)ccc21 [Example 1.12]

>  <pIC50>
8.40

$$$$
>  <compound>
CCn1c(CNC(=O)c2nc(Cl)cnc2N)[n+](CC)c2ccc(C(=O)N(C)CCNC)cc21 [Example 1.14]

>  <pIC50>
8.40

$$$$
>  <compound>
CCn1c(CNC(=O)c2nc(Cl)cnc2N)[n+](CC)c2cc(C(=O)N3CCN(CP(C)(C)=O)CC3)ccc21 [Example 1.16]

>  <pIC50>
7.92

$$$$
>  <compound>
CCn1c(CNC(=O)c2nc(Cl)cnc2N)[n+](CC)c2ccc(C(=O)N(C)CCN3CCOCC3)cc21 [Example 1.15]

>  <pIC50>
8.22

$$$$
